# protocolNotes: Restrictive medium S. cerevisiae growth inhibition, OD615, pilot screen of yeast lifespan reduction project, restrictive growth control (AID 706);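 further: modified DeaD lifespan yeast strain shifted to restrictive glucose medium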
# reportedConditions: OD615, 48 h, at 10 µM, stronger effect = higher value
measurementType: growth inhibition (%)
Could you give me the number in %? Just the number is fine.

| compound | measurementType | endpointResult |
| --- | --- | --- |
| Cc1ccc(NC(=O)c2cnc3scc(C)n3c2=O)c(C)c1 | growth inhibition | -12.6 |
| CCC(CO)N=CC1=C(O)CC(C)(C)CC1=O (centres undefined) | growth inhibition | -5.8 |
| C=CCOC(=O)COc1ccc2c(C)c(C)c(=O)oc2c1 | growth inhibition | -6.88 |

Please find the next compound below.
[ask] Request the reported growth inhibition associated with COc1ccc2c(c1)c(CCN1C(=O)c3ccccc3C1=O)cn2C(=O)c1ccco1
[reply] 0.45

* * *

The molecules listed here are annotated with their viability.
# protocolNotes: growth suppression of beta-catenin knockout HCT116, pilot screen, human colon tumor cells (AID 823);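 further: 0% = wells killed by 20 µM Hyamine and 100% = untreated DMSO cell wells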
# reportedConditions: CellTiter-Glo, 60 h, at 10 µM, stronger effect = lower value
Records with an inconclusive call do not appear.
# unit: % | format: bare number

Before answering, review these 10 worked examples.
| molecule | valueUnits | endpointResult |
| --- | --- | --- |
| COCCN1C(=O)c2ccccc2C(C(=O)NCCN(C)C)C1c1ccc(F)cc1 (stereo unspecified) | % | 92.1 |
| COC(=O)C1C2C=CC3(CN(c4ccc(Cl)c(F)c4)C(=O)C13)O2 (stereo unspecified) | % | 94.6 |
| COc1ccc(C2C(C(=O)Nc3cccc(C)n3)c3ccccc3C(=O)N2C)cc1OC (stereo unspecified) | % | 103 |
| O=C(CCCn1c(=O)oc2ccccc21)N1CCc2ccccc2C1 | % | 94.3 |
| O=C(NCCN1CCc2ccccc2C1)Nc1ccc(F)cc1 | % | 105 |
| Cc1c(NC(=O)OCc2ccccc2)c(=O)n(-c2ccccc2)n1C | % | 109 |
| CCOC(=O)c1oc2cc(O)c(CC)cc2c(=O)c1-c1ccc2c(c1)OCCO2 | % | 101 |
| Cc1ccc(CSc2nnc(Cn3c(=O)sc4ccccc43)n2C)cc1 | % | 95.8 |
| CC1CCN(C(=O)CN2C(=O)C(=O)c3ccccc32)CC1 | % | 100 |
| CCOC(=O)N1CCN(C(=O)CSc2nc3c(cnn3-c3ccccc3)c(=O)[nH]2)CC1 | % | 98.9 |

Now consider the entry below.
[ask] Query (molecule): O=C(CSc1nnc2scc(-c3ccccc3)n12)c1ccc2c(c1)OCCO2 ; field requested: viability
[reply] 99.5

* * *

# protocolNotes: OD615 S. cerevisiae growth inhibition, permissive medium, pilot counter-assay, permissive growth control for S. cerevisiae lifespan shortening project (AID 705)
# reportedConditions: OD615, 24 h, at 10 µM, stronger effect = higher value
// label = label 1 if growth inhibition is not less than -10%, otherwise label 0

Answered examples (3):
| molecule | labelClass |
| --- | --- |
| CCc1c(C)sc(NC(=O)c2cccs2)c1C(=O)OC(C)C | label 1 |
| O=C(CCC1CCCC1)c1c(O)c2ccccc2oc1=O | label 1 |
| Cc1cccc(-c2nc(CS(=O)CC(=O)N3CCCCC3)c(C)o2)c1 (configuration not stated) | label 1 |

[ask] I'd appreciate it if you could say whether Cc1ccc(N2CC(c3nc4ccccc4[nH]3)CC2=O)c(C)c1 (configuration not stated) has growth inhibition at least equal to -10%.
[reply] label 0

[ask] Cool, now COc1ccc(Cl)cc1N(CC(=O)Nc1ccc2c(c1)OCCO2)S(C)(=O)=O
[reply] label 1

[ask] Same for O=S(=O)(NCc1csc(-c2ccccc2)n1)c1ccc(Cl)s1
[reply] label 0

* * *

Readings of viability increase for the listed molecules
# protocolNotes: viability gain of MRP-1-high H69AR cells under doxorubicin, pilot screen, MRP-1 activator project, CellTiter-Glo, duplicate (AID 807);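 further: compound pretreatment 18-22 h then 72 h combined with doxorubicin; 0% = doxorubicin alone and 100% = vehicle without doxorubicin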
# reportedConditions: H69AR viability with doxorubicin, CellTiter-Glo luminescence; at 10 µM; stronger effect = higher value
Respond with the bare value in %.

| molecule | valueUnits | endpointResult |
| --- | --- | --- |
| COc1cccc(C(=O)NCCn2ccc3ccccc32)c1 | % | -1.6 |
| O=P(O)(CCc1ccncc1)CN1CCCCC1 | % | 2.46 |
| Cn1c(=O)[nH]c(=O)c2c1nc(N1CCCC1)n2CC(O)COc1ccccc1 (centres undefined) | % | -2.57 |
| COc1cccc(-c2nc(CS(=O)CC(=O)NCc3ccccc3)c(C)o2)c1 (centres undefined) | % | 1.16 |
| CC1CN(Cc2nc3c(c(=O)n(C)c(=O)n3C)n2Cc2ccc(Cl)cc2)CC(C)O1 (centres undefined) | % | -0.99 |

We now examine a further molecule.
[ask] Look up viability increase: COc1cccc(C(=O)Nc2ccc(S(=O)(=O)Nc3onc(C)c3C)cc2)c1
[reply] 0.25

* * *

# protocolNotes: growth suppression of PTEN-deleted HCT116, pilot screen, cell-based, HCT116 clonal line, CellTiter-Glo (AID 824);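 further: 0% = 20 µM Hyamine control and 100% = vehicle cell control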
# reportedConditions: 60 h, at 10 µM, stronger effect = lower value
Results filed as inconclusive are left out.
Rule: measured viability below 80% gets T; anything equal to or greater than 80% gets F.

Please review the entries below; each comes with its answer.
| compound | labelClass |
| --- | --- |
| O=C(CCn1c(=O)oc2ccccc21)NCc1ccc2c(c1)OCO2 | F |
| Cn1c(NCCO)nc2c(c1=O)C1(CCCCC1)Cc1ccccc1-2 | T |
| COc1cc(CO)cc(Br)c1OCC(=O)O | F |
| Cc1nc2ccccc2c2oc(C(=O)NCCN3CCN(C)CC3)cc12 | F |
| CCOC(=O)N1CCC(Nc2c(N3CCN(c4cc(Cl)ccc4C)CC3)c(=O)c2=O)CC1 | T |
| O=C(O)CC(Cn1cnnn1)c1ccccc1 (configuration not stated) | F |
| CCOC(=O)Nc1ccccc1C(=O)N1CCOCC1 | F |
| CCOc1cc(N2CCOCC2)c(OCC)cc1NC(=O)c1cc(-c2ccco2)nc2ccccc12 | T |
| CC(CCc1ccccc1)NC(=O)CSc1nccc(=O)[nH]1 (configuration not stated) | F |
| O=C(C1CCCN1S(=O)(=O)c1cccc2cccnc12)N1CCc2ccccc2C1 (configuration not stated) | F |

Please examine the following record next.
[ask] viability strictly < 80% for this compound? CCNC(=O)CN(c1ccc(CC)cc1)S(C)(=O)=O
[reply] F

* * *

# protocolNotes: RAM signaling pathway blockade in yeast – S. cerevisiae, Pdr1DBD-CYC8 efflux-inhibited sensitized strain, primary screen (AID 1298);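 further: 0% = DMSO untreated cells without growth and 100% = 10 µM 1-NA-PP1 full growth; higher means more yeast growth rescued from 5-FOA killing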
# reportedConditions: S. cerevisiae cbk1-as DSE1-URA3 strain, 5-FOA growth OD615, 2 d; at 50 µM; stronger effect = higher value
Active and inactive are the calls of the source.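 Rule for the calls: active = RAM network inhibition above 8.4% in each of two replicates, 3 SD over the compound average; inconclusive = above 8.4% inhibition in only one replicate; inactive = 8.4% inhibition or less in each replicate.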
Recorded RAM network inhibition, one value per entry.

Worked set:
| compound | endpointResult |
| --- | --- |
| O=C(NCC1CCCO1)NC1(C(F)(F)F)Oc2ccccc2O1 (stereo unspecified) | 2.09% (inactive) |
| CN(C)c1nc(-c2ccccc2)c2cnn(Cc3ccccc3)c2n1 | 6.82% (inactive) |
| O=C(Cn1nc(-c2ccccc2)ccc1=O)N1CCOCC1 | 0.21% (inactive) |
| CC1CCCN(C(C(=O)Nc2ccc3c(c2)OCO3)c2ccccc2)C1 (stereo unspecified) | 1.67% (inactive) |

[ask] Need RAM network inhibition of O=C(O)Cn1ncc2c1-c1ccoc1CC2 , thanks.
[reply] 0.47% (inactive)

[ask] Moving on to the next compound: CCC(C)NC(=O)CS(=O)Cc1nc(-c2cccc(OC)c2)oc1C (stereo unspecified)
[reply] 4.44% (inactive)

[ask] Now this one: CCOC(=O)CC1C(=O)NCCN1C(=O)c1cc2c(=O)n3ccccc3nc2s1 (stereo unspecified)
[reply] 6.8% (inactive)

[ask] Okay, and O=C(O)c1ccccc1C(=O)NCC(O)COCC1CC=CCC1 (stereo unspecified) ?
[reply] 3.55% (inactive)

[ask] // repeat for COc1ccc(-c2nc(CS(=O)CC(=O)NCc3ccco3)c(C)o2)cc1 (stereo unspecified) and report
[reply] 0.58% (inactive)

[ask] Similarly, O=C(O)COc1ccc2c(c1)OCCO2 ?
[reply] -0.47% (inactive)

* * *

# protocolNotes: OD615 S. cerevisiae growth inhibition, permissive medium, pilot counter-assay, permissive growth control for S. cerevisiae lifespan shortening project (AID 705)
# reportedConditions: OD615, 24 h, at 10 µM, stronger effect = higher value
Item-by-item account of growth inhibition
Lab book: enter the figure in %, no units written.

Solved cases below.
| molecule | growth inhibition [%] |
| --- | --- |
| CCc1ccc(N2CCN(C(=O)c3ccc(OC)c(OC)c3)CC2)cc1 | -15.2 |
| CCOc1ccc(N(CC(=O)NCc2ccc(F)cc2)S(=O)(=O)c2c(C)noc2C)cc1 | -15.6 |
| CN(C)S(=O)(=O)N1CCC(Cc2ccccc2)CC1 | -9.73 |
| COC(=O)C1CCN(C(c2cc(OC)c(OC)c(OC)c2)c2sc3nc(C)nn3c2O)CC1 (centres undefined) | -10.8 |

[ask] Consider the molecule shown here: Cc1csc2ncc(C(=O)Nc3ccc(C(F)(F)F)cc3)c(=O)n12 What is its recorded growth inhibition?
[reply] -10.2

[ask] # iterate: CC(C)(C)NC(=O)C1CN(S(=O)(=O)c2ccccc2)CCN1S(=O)(=O)c1ccccc1 (centres undefined)
[reply] 5.33

[ask] Thanks! And CCCCN1C(=O)/C(=C2\SC(N3CCCCC3)=NC2=O)c2ccccc21 ?
[reply] -4.39

[ask] Field entry: Cc1ccc(S(=O)(=O)N2CCN(Cc3ccccc3C(F)(F)F)CC2)cc1
[reply] -12.5

[ask] And what about the molecule COc1ccc(-c2nnnn2C)cc1S(=O)(=O)NCCc1ccccc1 ?
[reply] -8.48

[ask] Follow-up entry: O=C(CSc1nc2ncccc2[nH]1)NCc1ccccc1
[reply] 0.36
